- target of assay: huPD-L1 (Homo sapiens, UniProt Q9NZQ7)
- Sequence (Q9NZQ7 19-290): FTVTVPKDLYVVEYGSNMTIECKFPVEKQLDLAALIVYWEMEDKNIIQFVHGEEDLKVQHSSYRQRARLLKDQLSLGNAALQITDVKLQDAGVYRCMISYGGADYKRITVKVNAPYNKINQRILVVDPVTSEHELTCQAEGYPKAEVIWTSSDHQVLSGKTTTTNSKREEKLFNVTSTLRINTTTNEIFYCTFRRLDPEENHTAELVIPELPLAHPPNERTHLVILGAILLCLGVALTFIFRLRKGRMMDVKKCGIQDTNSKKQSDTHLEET
- test summary: Flow binding to CHO cells stably expressing PD-L1
- Set-up: huCTLA4 and huPD-L1, full-length mammalian surface expression constructs were generated; expressed in transfected cells; host or cells: CHO cells, lentiviral transduction, sorted to >98% purity
- experimental parameters: Table E19; ratio of MFI at 33.3 nM
I would appreciate it if you labelled entries Condition met when Ratio of PDL1:CD28 is 20 or higher, otherwise Condition not met.

molecule	group label
E35D/D46V/M47L/L85Q (protein) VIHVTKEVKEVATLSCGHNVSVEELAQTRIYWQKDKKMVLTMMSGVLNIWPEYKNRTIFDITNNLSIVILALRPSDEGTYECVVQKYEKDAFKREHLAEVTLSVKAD	Condition met
D46V/L85Q (protein) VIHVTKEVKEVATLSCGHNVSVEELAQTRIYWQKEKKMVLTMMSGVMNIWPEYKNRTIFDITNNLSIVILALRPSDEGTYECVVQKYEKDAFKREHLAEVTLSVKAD	Condition not met
E35D/M47V/N48K/K89N (protein) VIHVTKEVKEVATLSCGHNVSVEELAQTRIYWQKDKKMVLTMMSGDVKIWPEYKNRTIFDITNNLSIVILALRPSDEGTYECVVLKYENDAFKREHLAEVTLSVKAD	Condition not met
M47V/V68M (protein) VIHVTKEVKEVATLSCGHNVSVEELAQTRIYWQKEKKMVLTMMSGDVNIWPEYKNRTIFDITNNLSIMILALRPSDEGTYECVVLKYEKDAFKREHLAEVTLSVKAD	Condition not met

Consider the record given below.
Query: Could you verify whether the entry E35D/M47V/V68M/L85Q/K89N (protein) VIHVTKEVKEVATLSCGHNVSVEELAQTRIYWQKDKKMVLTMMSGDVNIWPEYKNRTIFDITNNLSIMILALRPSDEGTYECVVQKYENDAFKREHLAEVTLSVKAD shows Ratio of PDL1:CD28 of no less than 20?
Response: Condition met
